Tested on: Clostridium sporogenes DSM 1664
Experiment: fold change of Tryptamine concentration vs plate DMSO controls (fold change (ratio)); higher = more amine produced, active = hit call of the paper (significant change in both replicates, either direction);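 for the amine columns active = adjusted P below 0.05 in both replicates with a change the same way and a mean fold change under 0.8 or over 1.25; inactive = the rest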
Conditions: incubation time: 27 h, anaerobic, 37 °C
Please answer using one outcome listed in class 1 (active), class 0 (inactive)

// known answers, use as guide
>>> label_class("COc1c(-c2ccc3cc(NS(C)(=O)=O)ccc3c2)cc(-n2ccc(=O)[nH]c2=O)cc1C(C)(C)C [Dasabuvir] (20 µM)")
"class 0"
>>> label_class("O=S(=O)(O)NC1CCCCC1 [Cyclamic acid] (50 µM)")
"class 0"
>>> label_class("CN1c2cc(O)c(N=NC(N)=O)cc2CC1S(=O)(=O)O (stereo not drawn) [Carbazochrome sodium sulfonate] (20 µM)")
"class 0"
>>> label_class("COC(=O)Nc1nc2cc(C(=O)c3ccccc3)ccc2[nH]1 [Mebendazole] (20 µM)")
"class 0"
>>> label_class("Nc1ncnc2c1ncn2[C@@H]1O[C@H](COP(=O)(O)O)[C@@H](O)[C@H]1O [5'-Adenylic acid] (50 µM)")
"class 0"
>>> label_class("NS(=O)(=O)c1cc(C(=O)O)c(NCc2ccco2)cc1Cl [Furosemide] (20 µM)")
"class 0"

API: the following record is the query input.
[Q] Answer briefly: the call reported for NC(N)=Nc1nc(CSCCN/C=N/S(=O)(=O)c2ccc(Br)cc2)cs1 [Ebrotidine] (20 µM) in this assay.
[A] class 0

###

Test system: Klebsiella aerogenes DSM 30053
Experiment: growth (OD595) fold change vs plate DMSO controls (fold change (ratio)); higher = more growth
Conditions: incubation time: 27 h, anaerobic, 37 °C
Counter-ions that a name gives are not always drawn.
Recorded growth, one value per entry.

Record excerpt, results attached:
>>> result("O=S(=O)(O)CCS [Coenzyme M] (20 µM)")
1
>>> result("C[C@]1(Cn2ccnn2)[C@H](C(=O)O)N2C(=O)C[C@H]2S1(=O)=O [Tazobactam] (20 µM)")
0.973
>>> result("C#C[C@]1(OC(C)=O)CC[C@H]2[C@@H]3CCC4=C[C@@H](OC(C)=O)CC[C@@H]4[C@H]3CC[C@@]21C [Ethynodiol diacetate] (20 µM)")
1.02

Now turn to the next compound.
Summary for this compound, CNCCC(Oc1ccccc1OC)c1ccccc1 (stereo unspecified) [Nisoxetine hydrochloride] (20 µM) : growth is 0.914

###

Test system: Klebsiella aerogenes DSM 30053
Assay: fold change of Histamine concentration vs plate DMSO controls (fold change (ratio)); higher = more amine produced, active = hit call of the paper (significant change in both replicates, either direction)
Conditions: incubation time: 27 h, anaerobic, 37 °C
Structures can show the parent of a compound that is named as a salt.
Recorded fold change of Histamine concentration, one value per entry.
Could you keep your reply to the number by itself?

Record excerpt, results attached:
>>> quantitative_readout("NCCCCCC(=O)O [Aminocaproic acid] (20 µM)")
0.969
>>> quantitative_readout("Nc1ccn([C@@H]2O[C@H](CO)[C@@H](O)[C@@H]2O)c(=O)n1 [Cytarabine] (20 µM)")
0.975
>>> quantitative_readout("OC[C@H]1O[C@H](O[C@H]2O[C@H](CO)[C@@H](O)[C@H](O)[C@H]2O)[C@H](O)[C@@H](O)[C@@H]1O [Trehalose] (50 µM)")
0.94

Now turn to the next molecule.
Summary for this molecule, CCN(CC)CCOc1ccc(C(=C(Cl)c2ccccc2)c2ccccc2)cc1 [(Z,E) Clomiphene citrate] (20 µM) : fold change of Histamine concentration is 0.973

Origin of values: the supplement of paper PMC12494721
